# Tested on: K562
# ASSAY_SUMMARY: NCI tumour cell line growth inhibition, 48 h
Calls of active or inactive are those of the source. Cut-off read from the data, not from the text of the source: active = GI50 up to about 1.1 µM and inactive = higher. Where a SMILES comes first, the peptide text is derived from it. [ ]: non-standard residue; d: D form. The star is where a group is joined. ξ: configuration not given here. ξF = NC(Cc1ccccc1)C(=O)O; Cbz = O=C(OCc1ccccc1)*; Aib = CC(C)(N)C(=O)O
Thanks in advance; please answer with one of these: active, inactive

Request: # outcome recorded in this test, key = CC(=O)c1sc2c(c1OC(=O)c1ccc(Cl)cc1Cl)c(=O)n(-c1ccccc1)c(=S)n2-c1ccccc1
Response: inactive

Request: Hey, what did the test say about NCCc1ccc2c(c1)C(=O)c1c(O)ccc(O)c1C2=O ?
Response: inactive

Request: Give the logged outcome of this assay for the following compound: C=CC(Br)(CBr)CCC(Cl)C(C)C (stereo unspecified)
Response: inactive

Request: Call for entry Cc1ccccc1NC(=O)C(=O)C1CN(c2ccccc2)N=C1N (stereo unspecified) :
Response: inactive

Request: Given COc1ccc(C(c2cc(OC)c(OC)c(OC)c2)N2C(=O)CCC2C(=O)O)cc1 (stereo unspecified) , state the outcome it received in this test.
Response: inactive

Request: Record request — test call for CCCCSCC(NC(=O)/C=C/c1c(C)[nH]c(=O)[nH]c1=O)C(=O)OC (stereo unspecified)
Response: inactive

Request: Just curious, what result did CC1(C)N=C(C2CCCN2C(=O)OCc2ccccc2)OC1=O (stereo unspecified) get here?
Response: inactive

Request: # outcome recorded in this test, key = C=C(CO)CC(O)c1cc(OC)ccc1OC (stereo unspecified)
Response: inactive

Request: Recorded test call requested for CCCCCCCCCCCCCC(=O)OCC1OC(n2cc(F)c(=O)[nH]c2=O)C(NC(=O)OCc2ccccc2)C(OC(=O)CCCCCCCCCCCCC)C1O (stereo unspecified)
Response: inactive

Request: Could you kindly confirm the outcome this assay logged for COC(=O)C(C)(C)NC(=O)C(Cc1ccccc1)NC(=O)C(C)(C)NC(=O)OCc1ccccc1 (stereo unspecified) (Cbz-[Aib]-[ξF]-[Aib]-OMe) ?
Response: inactive

Request: What did this assay record as the result for CCCCCCCCCCCCC(O)C1CCC(C(O)CCCCC(O)CCCCCC2CC(CC(C)=O)C(=O)O2)O1 (stereo unspecified) ?
Response: active

Request: Tell me the assay call for O=C1c2cc([N+](=O)[O-])sc2C(=O)c2cc([N+](=O)[O-])sc21 please.
Response: active

Request: Please indicate how the test categorized CCN(CC)CCCOc1cc2c(cc1OC)C(=O)N1CCC[C@H]1C=N2 .
Response: inactive

Request: Outcome? COc1cc(C)c2c(=O)c3ccccc3n(C)c2c1
Response: inactive

Request: Per the assay record, what outcome was assigned to O=C1Nc2c(Cl)cc(Cl)cc2/C1=N/Nc1ccccc1[N+](=O)[O-] ?
Response: inactive

Request: Hi, do you know how COc1nc2ncc([C@@H](O)[C@H](O)CO)nc2c(=O)[nH]1 came out in this test?
Response: inactive

Request: What did the test return for CC(=O)NC1=C(NCC(C)(C)C)C(=O)c2ccccc2C1=O ?
Response: inactive

Request: Hi team, can someone confirm the assay call for O=c1c2cc(I)ccc2nc(-c2cccs2)n1-c1ccc(O)cc1 ?
Response: inactive

Request: For CCN(CC)C(=S)N/N=C(\C)c1cccc(C)n1 , which call appears in the assay record?
Response: active

Request: Which result was noted for this compound in the test: CN(C)c1nc2sc3c(c2c(=O)o1)CCCC3
Response: inactive

Request: For this compound, state the assay outcome: COc1ccccc1NCC(=O)Nn1c(C)nc2ccc(S(=O)(=O)Nc3ccccc3OC)cc2c1=O
Response: inactive

----------
# System: RXF 393
# ASSAY_SUMMARY: NCI tumour cell line growth inhibition, 48 h
Calls of active or inactive are those of the source. Cut-off read from the data, not from the text of the source: active = GI50 up to about 1.1 µM and inactive = higher.
TEST_READOUT: GI50

Request: Can you look up the measured GI50 of COc1ccc(NC(=O)NNS(=O)(=O)c2ccc(C)cc2)cc1 for me?
Response: > 100 µM (inactive)

Request: Can you look up the measured GI50 of Clc1ccc2c(NCCNc3ccnc4cc(Cl)ccc34)ccnc2c1 for me?
Response: 20 µM (inactive)

Request: // query GI50 value for entry COc1ccccc1-c1cc(O)c2c(C)cc(C)nc2n1
Response: 63.7 µM (inactive)

Request: Endpoint output: GI50 of CCN(CC)CCCNC(=O)c1cc2cc(NC(=O)c3cc4cc([N+](=O)[O-])ccc4[nH]3)ccc2[nH]1 . Value?
Response: > 100 µM (inactive)

Request: Please give the measured GI50 for this compound: CC(C)C1=CC23CCC4C(C)(C(=O)O)CCCC4(C)C2CC1C1C(=O)N(c2ccc(Cc4ccc(N5C(=O)C6C7CC8C9(C)CCCC(C)(C(=O)O)C9CCC8(C=C7C(C)C)C6C5=O)cc4)cc2)C(=O)C13 (configuration not stated)
Response: 13 µM (inactive)

Request: Record request: GI50 value, item CN(C)C(=S)SCc1ccccc1
Response: 3.85 µM (inactive)

Request: # query: GI50 of entry CC1CC2=Nc3ccccc3NC(c3ccccc3)C2=C(O)O1 (configuration not stated)
Response: > 100 µM (inactive)

Request: If you can, please state the reported GI50 value of O=P(O)(OCC(O)O)OCC(O)O .
Response: > 100 µM (inactive)

Request: # input compound: CCN1C(=O)/C(=C2\SC(c3ccccc3)(c3ccccc3)c3ccccc32)SC1=S ; wanted: its GI50
Response: > 100 µM (inactive)

Request: Using the record for O=C(O)Cc1ccc2nc(COC(=O)c3ccccc3)sc2c1 , report its GI50.
Response: > 100 µM (inactive)

Request: Would you mind telling me what GI50 value was observed for NCCSCc1ccccc1Cl ?
Response: 83.8 µM (inactive)

Request: Bench note: what GI50 did COc1ccc2nc3cc(Cl)ccc3c(NCCCNCc3cc(OC)c(OC)c(OC)c3)c2c1 show?
Response: 1.46 µM (inactive)

Request: For CCCCCCCCCC[C@@H](O)[C@H]1CC[C@@H]([C@H]2CC[C@H]([C@H](O)CCCCCCCCCC[C@@H]3CC(CC(C)=O)C(=O)O3)O2)O1 (some centres not stated) , what is its reported GI50?
Response: 4.99 µM (inactive)

Request: # query: GI50 of entry Cn1nc(-c2ccccc2)c(N=[N+]=[N-])cc1=O
Response: > 100 µM (inactive)

Request: Which measured GI50 value corresponds to CCC(=O)NC(Nc1cc(C)on1)(C(F)(F)F)C(F)(F)F ?
Response: > 100 µM (inactive)

Request: Find the recorded GI50 belonging to O=C1NC2(C=Cc3c(ccc4ccccc34)O2)Oc2ccccc21 (configuration not stated) and report it.
Response: 14.3 µM (inactive)

Request: For the compound CCSc1ncnc2c(C3OC(CO)C(O)C3O)nsc12 (configuration not stated) , what GI50 is on record?
Response: > 100 µM (inactive)

Request: I have this compound here, Cc1ccccc1C1OC1C(=O)c1ccccc1N (configuration not stated) , and I need its recorded GI50.
Response: 90.4 µM (inactive)

Request: // GI50 lookup, key: CC(=O)c1cc(I)c(O)c2ncccc12
Response: 3.92 µM (inactive)

Request: Returns the measured GI50 for the input compound. Input: Cc1ccc(S(=O)(=O)N2CCC3(C(/C=C/c4ccccc4)=Nc4ccccc43)C2c2ccccc2)cc1 (configuration not stated)
Response: > 100 µM (inactive)

Request: Would you kindly share the measured GI50 for C=CCC1(C)CCCN(Cc2ccccc2)C1=O (configuration not stated) ?
Response: > 10 µM (inactive)

Request: Give its GI50 value. Item: CCOC(=O)c1cnc2[nH]c(=O)c3ccccc3n2c1=O
Response: > 100 µM (inactive)

----------
Could you please report measured GI50 for the items listed next?
# Test system: PC-3
# ASSAY_SUMMARY: NCI tumour cell line growth inhibition, 48 h
Activity calls are given as the source filed them. No stated cut-off is given here; in the data, active = GI50 up to about 1.1 µM and inactive = higher.

Request: Can you look up GI50 on PC-3 for O=C1NC(=O)/C(=C/c2ccc(S(=O)(=O)N/N=C/c3ccccc3)cc2)N1 ?
Response: > 100 µM (inactive)

Request: Give GI50 (PC-3) of the following molecule: CCOc1cc2c(NCCCN(CCO)CCO)ncnc2c(OCC)c1OCC
Response: > 100 µM (inactive)

Request: # value lookup — system PC-3, readout GI50, item NCCc1ccc2c(c1)C(=O)c1c(O)ccc(O)c1C2=O
Response: 3.33 µM (inactive)

Request: Quick check: GI50 on PC-3, item CS(=O)(=O)c1ccc(/N=C/C=C/Nc2ccc(S(C)(=O)=O)cc2)cc1 ?
Response: > 100 µM (inactive)

Request: Field: GI50 (PC-3). Entry: [N-]=[N+]=NCc1nc(N)c2c3c(sc2n1)CCCC3
Response: 2.04 µM (inactive)

Request: Notebook: pull reported GI50 for PC-3, entry CC(=O)NC(C)(C)C1CC=C(C)CC1 (stereo not given)
Response: > 100 µM (inactive)

Request: Give PC-3 GI50 for COC(=O)c1c(O)ccc2[nH]c3c(O)c4ccccc4cc3c12
Response: 30.4 µM (inactive)

Request: Give recorded GI50 with PC-3 for the following molecule: CC(=O)OC[C@]1(C(=O)C(O)c2ccoc2)[C@H](C)CC[C@@]23COC(=O)C2=CCC[C@@H]31 (stereo not given in full)
Response: > 10 µM (inactive)

Request: Observed GI50 on PC-3 for C/C=C/[C@@H](C(=O)OC)N1C(=O)c2ccccc2[C@H]1O , please.
Response: > 100 µM (inactive)

Request: Look up GI50 with PC-3 for this molecule: CC12CC(c3ccccc3O1)C(C(=O)Nc1nccs1)C(=O)N2 (stereo not given)
Response: > 100 µM (inactive)
